These measurements were taken from the supplement of paper PMC6757056.

B1: library; a variant is named by its letters at N, in order (parent)
chain: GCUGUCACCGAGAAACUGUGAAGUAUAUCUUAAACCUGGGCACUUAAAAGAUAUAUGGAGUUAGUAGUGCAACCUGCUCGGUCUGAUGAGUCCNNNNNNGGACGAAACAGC

Variants of: B1
experiment_summary: normalized RNA/DNA level without ligand (relative to sTRSVctl = 100) (log10 (% of sTRSVctl)); HEK293T; ligand: cyclic di-GMP (c-di-GMP-II aptamer); higher = less ribozyme self-cleavage, higher mRNA level
experimental_parameters: reporter: mCherry (pCS4076), ligand present: no
# reported normalized RNA/DNA level without ligand (log10); entries follow
Format: numeric value only, no unit, no commentary.

*Q* Could you share which normalized RNA/DNA level without ligand (log10) value was measured for GCUGUCACCGAGAAACUGUGAAGUAUAUCUUAAACCUGGGCACUUAAAAGAUAUAUGGAGUUAGUAGUGCAACCUGCUCGGUCUGAUGAGUCCAGAUGCGGACGAAACAGC [AGAUGC] ?
*A* 1.66

*Q* Field entry: GCUGUCACCGAGAAACUGUGAAGUAUAUCUUAAACCUGGGCACUUAAAAGAUAUAUGGAGUUAGUAGUGCAACCUGCUCGGUCUGAUGAGUCCAACAUGGGACGAAACAGC [AACAUG]
*A* 1.54

*Q* Next up: GCUGUCACCGAGAAACUGUGAAGUAUAUCUUAAACCUGGGCACUUAAAAGAUAUAUGGAGUUAGUAGUGCAACCUGCUCGGUCUGAUGAGUCCUAUUAGGGACGAAACAGC [UAUUAG]
*A* 1.73

Next:
*Q* Look up normalized RNA/DNA level without ligand (log10) for this variant: GCUGUCACCGAGAAACUGUGAAGUAUAUCUUAAACCUGGGCACUUAAAAGAUAUAUGGAGUUAGUAGUGCAACCUGCUCGGUCUGAUGAGUCCCGGUACGGACGAAACAGC [CGGUAC]
*A* 1.53

*Q* Consider next the variant GCUGUCACCGAGAAACUGUGAAGUAUAUCUUAAACCUGGGCACUUAAAAGAUAUAUGGAGUUAGUAGUGCAACCUGCUCGGUCUGAUGAGUCCAUAUUCGGACGAAACAGC [AUAUUC] in the same way.
*A* 1.71

*Q* Another variant to check: GCUGUCACCGAGAAACUGUGAAGUAUAUCUUAAACCUGGGCACUUAAAAGAUAUAUGGAGUUAGUAGUGCAACCUGCUCGGUCUGAUGAGUCCUGUAUUGGACGAAACAGC [UGUAUU]
*A* 1.73
